experiment: Pharmacokinetics assays (plasma and brain); assay type: in vivo; details: plasma; species, dose and route not given
compounds and their reported log10 of Cmax
Field: value | Transform: log10 | Quantity: Cmax | Unit: ng/mL

{"sample-smiles": "N#Cc1ccc(-c2cnc3ccc(-c4ccc(C(=O)N5CCOCC5)cc4)cn23)cc1", "reported-metric": "log10 of Cmax", "reported-measurement": 3.87}

Any idea what log10 of Cmax was measured for N#Cc1ccc(-c2cnc3ccc(-c4ccc(C(=O)N5CCOCC5)cc4)nn23)cc1 ?
4.13

Any idea what log10 of Cmax was measured for CN(C)C1CCN(C(=O)c2ccc(-c3cn4c(-c5ccc(C#N)cc5)cnc4cn3)cc2)CC1 ?
2.36

Any idea what log10 of Cmax was measured for N#Cc1ccc(-c2cnn3ccc(-c4ccc(C(=O)N5CCOCC5)cc4)nc23)cc1 ?
3.78

Any idea what log10 of Cmax was measured for CN1CCN(C2CCN(C(=O)c3ccc(-c4ccc5ncc(-c6ccc(C#N)cc6)n5c4)cc3)CC2)CC1 ?
2.35

Any idea what log10 of Cmax was measured for CN1CCN(C(=O)c2ccc(-c3ccc4ncc(-c5ccc(C#N)cc5)n4c3)cc2)CC1=O ?
3.50

----------
compounds and their reported Brain Cmax
assay: Pharmacokinetics assays (plasma and brain); format: in vivo; conditions: brain
Write the number in ng/g without appending the unit.

Example results:
{"sample-smiles": "CN1CCN(C2CCN(C(=O)c3ccc(-c4ccc5ncc(-c6ccc(C#N)cc6)n5c4)cc3)CC2)CC1", "Brain Cmax (ng/g)": 20}
{"sample-smiles": "N#Cc1ccc(-c2cnc3cnc(-c4ccc(C(=O)N5CCOCC5)cc4)cn23)cc1", "Brain Cmax (ng/g)": 469}
{"sample-smiles": "CN1CCN(C(=O)c2ccc(-c3cn4c(-c5ccc(C#N)cc5)cnc4cn3)cc2)CC1", "Brain Cmax (ng/g)": 290}

Any idea what Brain Cmax was measured for N#Cc1ccc(-c2cnc3ccc(-c4ccc(C(=O)N5CCOCC5)cc4)nn23)cc1 ?
1724

----------
System: K562 cells (myelogenous leukemia) over-expressing eIF4E
Test: Cell cytotoxicity assay (CellTiter-Glo), K562
Format: cell-based
Conditions: Homo sapiens, K562; 48 hours; cell viability; read-out: IC50 after 48 hours of treatment, K562
Method: Cancer cell lines, MV-4-11 (leukemia), P116.c139 (acute T cell leukemia) and D1.1 (acute T cell leukemia), were purchased from ATCC and cultured according to supplier's recommendations. […] After 48 hours or six days treatment, cell viability was determined by CellTiter-Glo Luminescent Cell Viability Assay (Promega, Madison, Wis.). 120 μl of the reagent was added to the cells and luminescence was measured using Tecan Safire Reader. […]
compounds and their reported pIC50
To interpret pIC50, take it as minus log10 of a concentration measured in moles per litre.

{"compound": "CN1CCN(C(=O)c2ccc(-c3ccc4ncc(-c5ccc(O)cc5)n4c3)cc2)CC1 [Example 175]", "pIC50": 4.74}
{"compound": "CN1CCN(C(=O)c2ccc(-c3ccn4ncc(-c5ccc(C#N)cc5)c4n3)cc2)CC1 [Example 176]", "pIC50": 4.85}
{"compound": "CN1CCN(C2CCN(C(=O)c3ccc(-c4ccc5ncc(-c6ccc(C#N)cc6)n5c4)cc3)CC2)CC1 [Example 133]", "pIC50": 4.64}

# evaluate next
Give K562 cells (myelogenous leukemia) over-expressing eIF4E pIC50 for N#Cc1ccc(-c2cnc3ccc(-c4ccc(C(=O)N5CCOCC5)cc4)nn23)cc1 [Example 62]
5.12
